Please respond with reported log10(MRC5 cell assay ND 50) for every item in the list.
# system.under.test: p55 TNF-α receptor on MRC-5 cells (human) (UniProt P19438)
# Sequence (P19438 30-455): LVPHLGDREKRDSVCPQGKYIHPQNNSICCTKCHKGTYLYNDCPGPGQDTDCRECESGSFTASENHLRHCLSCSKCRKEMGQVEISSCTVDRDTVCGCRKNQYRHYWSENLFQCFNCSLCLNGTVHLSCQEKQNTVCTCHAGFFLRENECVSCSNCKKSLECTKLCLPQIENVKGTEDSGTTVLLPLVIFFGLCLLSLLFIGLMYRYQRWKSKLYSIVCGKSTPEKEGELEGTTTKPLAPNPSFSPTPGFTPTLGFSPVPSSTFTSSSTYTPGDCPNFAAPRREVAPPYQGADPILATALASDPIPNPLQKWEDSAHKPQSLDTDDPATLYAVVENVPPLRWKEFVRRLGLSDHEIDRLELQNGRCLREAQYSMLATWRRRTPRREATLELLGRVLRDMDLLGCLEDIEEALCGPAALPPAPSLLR
# assay.details: cell-based or functional assay
Each number you see is log10 of MRC5 cell assay ND 50, and the unit inside the log is nM.

Lab note: each binder below needs its log10(MRC5 cell assay ND 50) filled in.
1. TAR2-10-27 Ser120cys blocked (other, C-terminal Cys (Ser120cys) blocked with N-ethylmaleimide, TAR2-10-27 cys; the entry already carries Ser120cys) VH: ASTEVQLLESGGGLVQPGGSLRLSCAASGFTFEWYWMGWVRQAPGKGLEWVSAISGSGGSTYYADSVKGRFTISRDNSKNTLYLQMNSLRAEDAAVYYCAKVKLGGGPNFGYRGQGTLVTVSC
2. TAR2-10-27 Glu89cys 30K MAL PEG (other, 30K MAL-PEG on Cys89, For numbering and entry offset see m28) VH: ASTEVQLLESGGGLVQPGGSLRLSCAASGFTFEWYWMGWVRQAPGKGLEWVSAISGSGGSTYYADSVKGRFTISRDNSKNTLYLQMNSLRACDAAVYYCAKVKLGGGPNFGYRGQGTLVTVSS
3. TAR2-10-27 Asp62cys blocked (other, Cys62 blocked with N-ethylmaleimide, For numbering and entry offset see m28) VH: ASTEVQLLESGGGLVQPGGSLRLSCAASGFTFEWYWMGWVRQAPGKGLEWVSAISGSGGSTYYACSVKGRFTISRDNSKNTLYLQMNSLRAEDAAVYYCAKVKLGGGPNFGYRGQGTLVTVSS
4. TAR2-10-27 Glu89cys blocked (other, Cys89 blocked with N-ethylmaleimide, For numbering and entry offset see m28) VH: ASTEVQLLESGGGLVQPGGSLRLSCAASGFTFEWYWMGWVRQAPGKGLEWVSAISGSGGSTYYADSVKGRFTISRDNSKNTLYLQMNSLRACDAAVYYCAKVKLGGGPNFGYRGQGTLVTVSS
5. TAR2-10-27 Gln112cys blocked (other, Cys112 blocked with N-ethylmaleimide, For numbering and entry offset see m28) VH: ASTEVQLLESGGGLVQPGGSLRLSCAASGFTFEWYWMGWVRQAPGKGLEWVSAISGSGGSTYYADSVKGRFTISRDNSKNTLYLQMNSLRAEDAAVYYCAKVKLGGGPNFGYRGCGTLVTVSS

stdout:
1: 1.48; 2: 2.00; 3: 2.63; 4: 1.85; 5: 1.18

Lab note: each binder below needs its log10(MRC5 cell assay ND 50) filled in.
1. TAR2-10-27 Leu115cys 30K MAL PEG (other, 30K MAL-PEG on Cys115, For numbering and entry offset see m28) VH: ASTEVQLLESGGGLVQPGGSLRLSCAASGFTFEWYWMGWVRQAPGKGLEWVSAISGSGGSTYYADSVKGRFTISRDNSKNTLYLQMNSLRAEDAAVYYCAKVKLGGGPNFGYRGQGTCVTVSS
2. TAR2-10-27 Thr117cys blocked (other, Cys117 blocked with N-ethylmaleimide, For numbering and entry offset see m28) VH: ASTEVQLLESGGGLVQPGGSLRLSCAASGFTFEWYWMGWVRQAPGKGLEWVSAISGSGGSTYYADSVKGRFTISRDNSKNTLYLQMNSLRAEDAAVYYCAKVKLGGGPNFGYRGQGTLVCVSS
3. TAR2-10-27 Thr117cys 30K MAL PEG (other, 30K MAL-PEG on Cys117, For numbering and entry offset see m28) VH: ASTEVQLLESGGGLVQPGGSLRLSCAASGFTFEWYWMGWVRQAPGKGLEWVSAISGSGGSTYYADSVKGRFTISRDNSKNTLYLQMNSLRAEDAAVYYCAKVKLGGGPNFGYRGQGTLVCVSS

stdout:
1: 2.48; 2: 1.48; 3: 2.85
